Source listed as the kinase profiling compilation of Christmann-Franck et al. (2016).

Recorded measurements of inhibition, one per entry
# TARGET: MAPKAPK3 (human) (UniProt Q16644)
# Sequence (Q16644 whole entry, looked up): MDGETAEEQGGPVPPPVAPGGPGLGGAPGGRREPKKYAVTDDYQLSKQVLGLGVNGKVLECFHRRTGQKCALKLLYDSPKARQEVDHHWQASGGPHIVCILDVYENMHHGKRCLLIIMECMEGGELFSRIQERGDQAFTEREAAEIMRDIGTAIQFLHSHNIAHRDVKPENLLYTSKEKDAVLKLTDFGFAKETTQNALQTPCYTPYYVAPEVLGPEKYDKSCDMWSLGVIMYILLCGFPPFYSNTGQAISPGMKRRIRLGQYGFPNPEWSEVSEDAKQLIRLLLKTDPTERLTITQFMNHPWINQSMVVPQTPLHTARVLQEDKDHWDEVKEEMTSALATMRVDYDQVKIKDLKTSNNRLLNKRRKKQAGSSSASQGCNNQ
# ASSAY_TEXT: radiometric filter-binding kinase assay
# TEST_CONTEXT: compound 100.0 µM; ATP 20 µM

| CHEMICAL_SMILES | inhibition |
| --- | --- |
| Nc1cnc2c(-c3c(F)cccc3F)cccn2c1=O | 54% |
| CC(C)(C)Nc1c(COCc2ccccc2)nc2[nH]cnn12 | 38% |
| O=C(Nc1cnc2[nH]cnn2c1=O)c1ccccc1 | 0% |
| O=c1c(NC(=S)NCc2ccccc2)cnc2[nH]ccn12 | 21% |
| O=C(c1cccc(-c2cc3c(=O)[nH]cnc3s2)c1)N1CCOCC1 | 61% |
| CC(=O)Nc1nc2cnc(-c3ccccc3)cn2n1 | 2% |
| Cc1cccc(C)c1-c1cn2nc(N)nc2cn1 | 33% |
| CC(=O)Nc1nc2cnc(-c3c(C)cccc3C)cn2n1 | 74% |

----------
# TARGET: MAPK9 (human)
# ASSAY_TEXT: radiometric filter-binding kinase assay
# TEST_CONTEXT: compound 100.0 µM; ATP 20 µM
OBSERVABLE: inhibition (%)

| COMPOUND | QUANTITY_UNIT | NUMERIC_VALUE |
| --- | --- | --- |
| Nc1nc2cnc(-c3ccccc3)cn2n1 | % | 26 |
| Cc1cccc(C)c1-c1cn2nc(N)nc2cn1 | % | 0 |
| CC(C)(C)Nc1c(COCc2ccccc2)nc2[nH]cnn12 | % | 10 |
| CC(=O)Nc1nc2cnc(-c3c(C)cccc3C)cn2n1 | % | 0 |
| CC1CN(c2nc3ccccn3c(=O)c2N)CC(C)O1 (stereo not given) | % | 6 |
| O=c1cc(-c2ccccc2F)nc2[nH]ccn12 | % | 10 |
| COc1ccc(-c2cc3c(=O)[nH]cnc3s2)cc1OC | % | 8 |
| O=C(c1cccc(-c2cc3c(=O)[nH]cnc3s2)c1)N1CCOCC1 | % | 0 |
| O=C(Nc1cnc2[nH]ccn2c1=O)c1ccccc1 | % | 11 |
| Nc1cnc2c(-c3c(F)cccc3F)cccn2c1=O | % | 17 |
| O=c1c(NC(=S)NCc2ccccc2)cnc2[nH]ccn12 | % | 7 |
| COc1ccc(NC(=S)Nc2cnc3[nH]cnn3c2=O)cn1 | % | 5 |
| CC(=O)Nc1nc2cnc(-c3ccccc3)cn2n1 | % | 1 |
| O=C(Nc1cnc2[nH]cnn2c1=O)c1ccccc1 | % | 3 |
| CC(C)(C)Nc1c(C2CC2)nc2[nH]cnn12 | % | 3 |

----------
Recorded measurements of inhibition, one per entry
# TARGET: MAPKAPK2 (human) (UniProt P49137)
# Sequence (P49137 whole entry, looked up): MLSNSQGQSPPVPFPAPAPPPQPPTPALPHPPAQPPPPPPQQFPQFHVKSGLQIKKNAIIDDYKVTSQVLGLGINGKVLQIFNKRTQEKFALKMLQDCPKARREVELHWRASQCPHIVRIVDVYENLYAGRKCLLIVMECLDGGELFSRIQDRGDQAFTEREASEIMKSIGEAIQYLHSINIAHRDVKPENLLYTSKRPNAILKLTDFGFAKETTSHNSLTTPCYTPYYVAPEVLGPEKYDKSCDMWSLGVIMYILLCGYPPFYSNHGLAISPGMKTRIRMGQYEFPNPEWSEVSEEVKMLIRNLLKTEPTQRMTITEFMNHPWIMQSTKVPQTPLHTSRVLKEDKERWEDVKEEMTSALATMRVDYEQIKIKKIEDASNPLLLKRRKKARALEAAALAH
# ASSAY_TEXT: radiometric filter-binding kinase assay
# TEST_CONTEXT: compound 100.0 µM; ATP 20 µM

| CHEMICAL_SMILES | inhibition |
| --- | --- |
| COc1ccc(NC(=S)Nc2cnc3[nH]cnn3c2=O)cn1 | 26% |
| Cc1cccc(C)c1-c1cn2nc(N)nc2cn1 | 14% |
| CC(=O)Nc1nc2cnc(-c3ccccc3)cn2n1 | 7% |

----------
# TARGET: SRPK1 (human)
# ASSAY_TEXT: radiometric filter-binding kinase assay
# TEST_CONTEXT: compound 100.0 µM; ATP 50 µM

| COMPOUND | QUANTITY_UNIT | inhibition |
| --- | --- | --- |
| O=C(Nc1cnc2[nH]ccn2c1=O)c1ccccc1 | % | 14 |
| CC(=O)Nc1nc2cnc(-c3ccccc3)cn2n1 | % | 25 |
| O=C(c1cccc(-c2cc3c(=O)[nH]cnc3s2)c1)N1CCOCC1 | % | 19 |
| Nc1nc2cnc(-c3ccccc3)cn2n1 | % | 41 |
| CC(C)(C)Nc1c(C2CC2)nc2[nH]cnn12 | % | 0 |
| COc1ccc(-c2cc3c(=O)[nH]cnc3s2)cc1OC | % | 36 |
| Cc1cccc(C)c1-c1cn2nc(N)nc2cn1 | % | 31 |
| O=c1cc(-c2ccccc2F)nc2[nH]ccn12 | % | 0 |
| O=c1c(NC(=S)NCc2ccccc2)cnc2[nH]ccn12 | % | 9 |
| CC(=O)Nc1nc2cnc(-c3c(C)cccc3C)cn2n1 | % | 10 |
| CC(C)(C)Nc1c(COCc2ccccc2)nc2[nH]cnn12 | % | 3 |
| COc1ccc(NC(=S)Nc2cnc3[nH]cnn3c2=O)cn1 | % | 42 |
| Nc1cnc2c(-c3c(F)cccc3F)cccn2c1=O | % | 58 |
| O=C(Nc1cnc2[nH]cnn2c1=O)c1ccccc1 | % | 0 |
| CC1CN(c2nc3ccccn3c(=O)c2N)CC(C)O1 (stereo not given) | % | 74 |
